# system-under-test: T1, CBX8 chromodomain (CBX8 ChD), N-terminal His6-tagged recombinant protein (UniProt Q9HC52 8-61, limits assumed)
# T1 construct: domain: chromodomain; not shown: N-terminal His6 tag
# T1 sequence (looked up): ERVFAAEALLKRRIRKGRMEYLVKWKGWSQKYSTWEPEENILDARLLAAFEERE
# experimental-protocol: direct fluorescence polarization, FAM-labelled ligand at 100 nM, ChD titrated
Square brackets hold non-standard residues; d marks the D form. * marks the point of attachment. triazole = triazole formed by click reaction joining the C-terminal propargylamide to 5/6-carboxyfluorescein; Isoxazole3carbonyl(5-Me) = Cc1cc(C(=O)*)no1; Tyr(3-Cl) = N[C@@H](Cc1ccc(O)c(Cl)c1)C(=O)O; Lys(Et2) = CCN(CC)CCCC[C@H](N)C(=O)O; NH(propargyl) = C#CCN*
observed-property: Kd (nM)
Respond numerically; units are nM and should not be typed.

Respond only with Kd recorded for {Isoxazole3carbonyl(5-Me)}-[Tyr(3-Cl)]VI[Lys(Et2)]S-{NH(propargyl)-triazole-5/6‑FAM} (also called 97L fluorescein derivative; KED97L (as measured)) [KED97L-FL] 240
